Where do the numbers come from? From paper PMC10609854.

test: in vivo; conditions: mouse
result type: k el (s⁻¹)
Give bare numbers, in s⁻¹.

Q: Quick one: k el of `O=C(O)C(=O)O.c1ccc(-c2ccc(OCCCCCN3CCCCCC3)cc2)cc1` ?
A: 0.000278

----------
experiment: in vivo; conditions: mouse, iv, 5 mg/kg
result type: Kp

Q: Item under review: `O=C(O)C(=O)O.c1ccc(-c2ccc(OCCCCCN3CCCCCC3)cc2)cc1` . Reported Kp?
A: 15.7

----------
assay: in vivo; conditions: mouse, ip, 5 mg/kg
result type: Kp
Give bare numbers.

Q: Please report the recorded Kp for O=C(O)C(=O)O.c1ccc(-c2ccc(OCCCCCN3CCCCCC3)cc2)cc1 [Compound E153] .
A: 28.5
